- Tested on: LNCaP (human prostate carcinoma)
- assay_overview: Cell proliferation (MTS) assay, LNCaP
- Assay type: cell-based
- test_context: Homo sapiens, LNCaP, 72 h, Table 2; three days treatment
quantity_kind: IC50 (µg/mL)

Reference set, count: 8
Exercise: Please look up its IC50: COCC1OC(=O)C(=CN2CCC(N3CCCCC3)CC2)C2=C(O)C(=O)C3=C(C(OC(C)=O)CC4(C)C(O)CCC34)C21C (stereo not shown) [Compound 47]
Solution: 0.9

Exercise: Likewise for CCN(CC)CCCN(C=C1C(=O)OC(COC)C2(C)C1=C(O)C(=O)C1=C2C(OC(C)=O)CC2(C)C(O)CCC12)CCS(=O)(=O)c1ccccc1 (stereo not shown) [Compound 28] ?
Solution: 0.12

Exercise: Query COC[C@H]1OC(=O)/C(=C/N2CCN(c3ccccc3)CC2)C2=C(O)C(=O)C3=C([C@H](OC(C)=O)C[C@@]4(C)C3CC[C@@H]4O)[C@]21C (stereo partly shown) [Compound 13] next
Solution: 0.33

Exercise: Lookup COCC1OC(=O)C(=CN2CCCC2C(=O)OC)C2=C(O)C(=O)C3=C(C(OC(C)=O)CC4(C)C(O)CCC34)C21C (stereo not shown) [Compound 39]
Solution: 0.043

Exercise: Same thing, different molecule: COCC1OC(=O)C(=CN(C)C(C=C(C)C(=O)OC)C(C)C)C2=C(O)C(=O)C3=C(C(OC(C)=O)CC4(C)C(O)CCC34)C21C (stereo not shown) [Compound 24]
Solution: 0.13

Exercise: Another molecule to check: COCC1OC(=O)C(=CN2CCC(C(=O)O)CC2)C2=C(O)C(=O)C3=C(C(OC(C)=O)CC4(C)C(O)CCC34)C21C (stereo not shown) [Compound 23]
Solution: 0.28

Exercise: Follow-up entry: CCN(/C=C1/C(=O)O[C@H](COC)[C@@]2(C)C1=C(O)C(=O)C1=C2[C@H](O)C[C@]2(C)[C@@H](O)CC[C@@H]12)CC [Compound 50]
Solution: 0.25

Exercise: Moving on to COCC1OC(=O)C(=CN(C)CCCN2CCN(C)CC2)C2=C(O)C(=O)C3=C(C(OC(C)=O)CC4(C)C(O)CCC34)C21C (stereo not shown) [Compound 26]
Solution: 0.28

A = COCC1OC(=O)C(=CN2CCC(=O)CC2)C2=C(O)C(=O)C3=C(C(OC(C)=O)CC4(C)C(O)CCC34)C21C (stereo not shown) [Compound 44]
B = CCN(C=C1C(=O)OC(COC)C2(C)C3=C(C(=O)C(O)=C12)C1CCC(O)C1(C)CC3)CCN(C)C (stereo not shown) [Compound 45]
Exercise: Given the listed records, identify the one among A and B with higher IC50. To answer, give the label that identifies your chosen option.
Solution: B

a = COCC1OC(=O)C(=CN(CCO)CCO)C2=C(O)C(=O)C3=C(C(OC(C)=O)CC4(C)C(O)CCC34)C21C (stereo not shown) [Compound 19]
b = COCC1OC(=O)C(=CN2CCN(C3CCN(C)CC3)CC2)C2=C(O)C(=O)C3=C(C(OC(C)=O)CC4(C)C(O)CCC34)C21C (stereo not shown) [Compound 34]
c = COCC1OC(=O)C(=CN(C)CCCC(=O)O)C2=C(O)C(=O)C3=C(C(OC(C)=O)CC4(C)C(O)CCC34)C21C (stereo not shown) [Compound 37]
Exercise: Arrange the 3 molecules from largest to smallest IC50. Write the labels out in the order the request specifies.
Solution: b, c, a
(b: 0.48 µg/mL, c: 0.2 µg/mL, a: 0.07 µg/mL)

###

- assay_system: Human TOR (Homo sapiens)
- Construct: FLAG
- assay_overview: Human TOR (mTOR) kinase assay, DELFIA format
- Assay type: biochemical
- test_context: Table 2
pIC50: −log10 of the molar value.
quantity_kind: pIC50

Exercise: # query: pIC50 | item COC[C@H]1OC(=O)/C(=C/N(C)CCCN(C)C)C2=C(O)C(=O)C3=C([C@H](OC(C)=O)C[C@@]4(C)C3CC[C@@H]4O)[C@]21C (stereo partly drawn) [Compound 5] | system: Human TOR (Homo sapiens)
Solution: 5.89

Exercise: And the next one, COCC1OC(=O)C(=CN2CCC(C(=O)OC)CC2)C2=C(O)C(=O)C3=C(C(OC(C)=O)CC4(C)C(O)CCC34)C21C (stereo not drawn) [Compound 22] ?
Solution: 5.77

Exercise: # iterate: COCC1OC(=O)C(=CN(C)CCCN2CCOCC2)C2=C(O)C(=O)C3=C(C(OC(C)=O)CC4(C)C(O)CCC34)C21C (stereo not drawn) [Compound 27]
Solution: 5.64

Exercise: Similarly, CCCCN(C)/C=C1/C(=O)O[C@H](COC)[C@@]2(C)C1=C(O)C(=O)C1=C2[C@H](OC(C)=O)C[C@@]2(C)C1CC[C@@H]2O (stereo partly drawn) [Compound 8] ?
Solution: 5.04

P = COCC1OC(=O)C(=CN2CCCC2C(=O)OC)C2=C(O)C(=O)C3=C(C(OC(C)=O)CC4(C)C(O)CCC34)C21C (stereo not drawn) [Compound 39]
Q = COCC1OC(=O)C(=CN(C)CCCN2CCN(c3ccc(OC)cc3)CC2)C2=C(O)C(=O)C3=C(C(OC(C)=O)CC4(C)C(O)CCC34)C21C (stereo not drawn) [Compound 25]
R = COCC1OC(=O)C(=CN(C)CC(O)CO)C2=C(O)C(=O)C3=C(C(OC(C)=O)CC4(C)C(O)CCC34)C21C (stereo not drawn) [Compound 36]
S = COCC1OC(=O)C(=CN2CCC(N3CCCCC3)CC2)C2=C(O)C(=O)C3=C(C(OC(C)=O)CC4(C)C(O)CCC34)C21C (stereo not drawn) [Compound 47]
Exercise: Please list these in order of increasing pIC50. Thank you! // respond by listing labels in the order requested
Solution: P, R, Q, S
(P: 4.91, R: 5.52, Q: 5.87, S: 6.25)

###

- Test system: MDA468 (human breast cancer cell)
- assay_overview: Cell proliferation (MTS) assay, MDA468
- Type: cell-based
- test_context: Homo sapiens, 72 h, Table 1; three days treatment
- Description: Results of cell proliferation assays for exemplary compounds are shown below in Tables 1 and 2. […] For a non-radioactive cell proliferation assay, viable cell densities are determined by measuring metabolic conversion (by viable cells) of the dye MTS tatrazolium dye, a cell proliferation assay known by one of skill in the art (MTS assay), a previously established cell proliferation assay. […]
quantity_kind: IC50 (mg/L)

Exercise: Reported IC50 for MDA468 (human breast cancer cell), given CCCCN(C)/C=C1/C(=O)O[C@H](COC)[C@@]2(C)C1=C(O)C(=O)C1=C2[C@H](OC(C)=O)C[C@@]2(C)C1CC[C@@H]2O (stereo partly shown) ?
Solution: 0.6

I = COC[C@H]1OC(=O)/C(=C/N(C)C2CCCCC2)C2=C(O)C(=O)C3=C([C@H](OC(C)=O)C[C@@]4(C)C3CC[C@@H]4O)[C@]21C (stereo partly shown)
II = COCC1OC(=O)C(=CN(CCC#N)Cc2ccccc2)C2=C(O)C(=O)C3=C(C(OC(C)=O)CC4(C)C(O)CCC34)C21C (stereo not shown)
Exercise: Please choose the item with the lower IC50 value from this pair: I and II Give the label of your selection.
Solution: II

###

- Test system: MDA435 (human breast adenocarcinoma)
- assay_overview: Cell proliferation (MTS) assay, MDA435
- Type: cell-based
- test_context: Homo sapiens, MDA435, 72 h, Table 2; three days treatment
quantity_kind: IC50 (µg/mL)

Example entries and their recorded answers appear below.
Exercise: Can you share its IC50? I mean this compound: COCC1OC(=O)C(=CN(C)CCN(C)C)C2=C(O)C(=O)C3=C(C(OC(C)=O)CC4(C)C(O)CCC34)C21C (centres unmarked)
Solution: 23

Exercise: Thanks! And COC[C@H]1OC(=O)/C(=C/N(C)CCCN(C)C)C2=C(O)C(=O)C3=C([C@H](OC(C)=O)C[C@@]4(C)C3CC[C@@H]4O)[C@]21C (some centres unmarked) ?
Solution: 8.2

1 = COCC1OC(=O)C(=CN(C)CCCC(=O)O)C2=C(O)C(=O)C3=C(C(OC(C)=O)CC4(C)C(O)CCC34)C21C (centres unmarked)
2 = COCC1OC(=O)C(=CN(C)CC(O)CO)C2=C(O)C(=O)C3=C(C(OC(C)=O)CC4(C)C(O)CCC34)C21C (centres unmarked)
3 = COCC1OC(=O)C(=CN2CCN(CCN3CCOCC3)CC2)C2=C(O)C(=O)C3=C(C(OC(C)=O)CC4(C)C(O)CCC34)C21C (centres unmarked)
Exercise: Order each entry by recorded IC50, climbing from the minimum. // ordering of labels required in reply
Solution: 2, 1, 3

###

- Tested on: MDA435 (human breast adenocarcinoma)
- assay_overview: Cell proliferation (MTS) assay, MDA435
- Type: cell-based
- test_context: Homo sapiens, MDA435, 72 h, Table 2; three days treatment
quantity_kind: IC50 (µg/mL)

Please review the following examples before continuing.
Exercise: For the compound COCC1OC(=O)C(=CN2CCCC2C(=O)OC)C2=C(O)C(=O)C3=C(C(OC(C)=O)CC4(C)C(O)CCC34)C21C (stereo not shown) , what IC50 is on record?
Solution: 4

Exercise: Param item: COCC1OC(=O)C(=CN2CCC(C(=O)OC)CC2)C2=C(O)C(=O)C3=C(C(OC(C)=O)CC4(C)C(O)CCC34)C21C (stereo not shown)
Solution: 18

Exercise: Moving on to COCC1OC(=O)C(=CN(C)CC(=O)OC(C)(C)C)C2=C(O)C(=O)C3=C(C(OC(C)=O)CC4(C)C(O)CCC34)C21C (stereo not shown)
Solution: 5.5

Exercise: And what about the compound COCC1OC(=O)C(=CN2CCC2C(=O)O)C2=C(O)C(=O)C3=C(C(OC(C)=O)CC4(C)C(O)CCC34)C21C (stereo not shown) ?
Solution: 4

Exercise: What do we get for COCC1OC(=O)C(=CN2CCN(CCCN3CCOCC3)CC2)C2=C(O)C(=O)C3=C(C(OC(C)=O)CC4(C)C(O)CCC34)C21C (stereo not shown) ?
Solution: 21

Exercise: Queued: CCN(CC)CCCN(C=C1C(=O)OC(COC)C2(C)C1=C(O)C(=O)C1=C2C(OC(C)=O)CC2(C)C(O)CCC12)CCS(=O)(=O)c1ccccc1 (stereo not shown)
Solution: 11

Exercise: And what about the compound COCC1OC(=O)C(=CN(C)CCCN2CCOCC2)C2=C(O)C(=O)C3=C(C(OC(C)=O)CC4(C)C(O)CCC34)C21C (stereo not shown) ?
Solution: 30

Exercise: Another: COCC1OC(=O)C(=CN2CCN(CCCN(C)C)CC2)C2=C(O)C(=O)C3=C(C(OC(C)=O)CC4(C)C(O)CCC34)C21C (stereo not shown)
Solution: 22

Exercise: What about CCCCN(C)/C=C1/C(=O)O[C@H](COC)[C@@]2(C)C1=C(O)C(=O)C1=C2[C@H](OC(C)=O)C[C@@]2(C)C1CC[C@@H]2O (stereo partly shown) ?
Solution: 3.1

Exercise: // next record COC[C@H]1OC(=O)/C(=C/N2CCN(c3ccccc3)CC2)C2=C(O)C(=O)C3=C([C@H](OC(C)=O)C[C@@]4(C)C3CC[C@@H]4O)[C@]21C (stereo partly shown)
Solution: 13

I = COCC1OC(=O)C(=CN(C)CCCN2CCN(C)CC2)C2=C(O)C(=O)C3=C(C(OC(C)=O)CC4(C)C(O)CCC34)C21C (stereo not shown)
II = COCC1OC(=O)C(=CN(C)C(C=C(C)C(=O)OC)C(C)C)C2=C(O)C(=O)C3=C(C(OC(C)=O)CC4(C)C(O)CCC34)C21C (stereo not shown)
Exercise: Kindly identify the item with the lower IC50 figure among these two: I and II Select an item and report its label.
Solution: II
(II: 10.1 µg/mL, I: 21 µg/mL)
